Please provide measured MIC K. pneumoniae ATCC BAA-2146 (NDM-1) for the entries that follow.
- System: Klebsiella pneumoniae ATCC BAA-2146 (NDM-1)
- test.protocol: Antibacterial activity, MIC by dish double dilution method
- Format: cell-based
- particulars: ATCC BAA-2146
Where a SMILES comes first, the peptide text is derived from it. Bridges are numbered along the chain shown (N, C = ends). [ ]: non-standard residue; d: D form. The star is where a group is joined. dPhe(4-NO2) = N[C@H](Cc1ccc([N+](=O)[O-])cc1)C(=O)O; X2 = CC[C@H](C)CCCCC(=O)*; Heptanoyl = CCCCCCC(=O)*; Dab = NCC[C@H](N)C(=O)O; X1 = CCCCCC(=O)CC(=O)*; X3 = CCCCC(=O)CC(=O)*; X4 = COCCCCCC(=O)*
Number in µg/mL, nothing else.

Entry CC[C@H](C)CCCCC(=O)N[C@@H](CCN)C(=O)N[C@H](C(=O)N[C@@H](CCN)C(=O)N[C@H]1CCNC(=O)[C@H]([C@@H](C)O)NC(=O)[C@H](CCN)NC(=O)[C@H](CCN)NC(=O)[C@H](CC(C)C)NC(=O)[C@@H](Cc2ccc(OC)cc2)NC(=O)[C@H](CCN)NC1=O)[C@@H](C)O [Compound 24] (X2-[Dab]T[Dab][Dab][Dab][dY](Me)L[Dab][Dab]T; lactam 4-C) : reported MIC K. pneumoniae ATCC BAA-2146 (NDM-1) = ? 2

Entry CC[C@H](C)CCCCC(=O)N[C@@H](CCN)C(=O)N[C@H](C(=O)N[C@@H](CCN)C(=O)N[C@H]1CCNC(=O)[C@H]([C@@H](C)O)NC(=O)[C@H](CCN)NC(=O)[C@H](CCN)NC(=O)[C@H](CC(C)C)NC(=O)[C@@H](Cc2ccc([N+](=O)[O-])cc2)NC(=O)[C@H](CCN)NC1=O)[C@@H](C)O [Compound 14] (X2-[Dab]T[Dab][Dab][Dab][dPhe(4-NO2)]L[Dab][Dab]T; lactam 4-C) : reported MIC K. pneumoniae ATCC BAA-2146 (NDM-1) = ? 2

Entry CCCCC(=O)CC(=O)N[C@@H](CCN)C(=O)N[C@H](C(=O)N[C@@H](CCN)C(=O)N[C@H]1CCNC(=O)[C@H]([C@@H](C)O)NC(=O)[C@H](CCN)NC(=O)[C@H](CCN)NC(=O)[C@H](CC(C)C)NC(=O)[C@@H](Cc2ccccc2)NC(=O)[C@H](CCN)NC1=O)[C@@H](C)O [Compound 4] (X3-[Dab]T[Dab][Dab][Dab][dF]L[Dab][Dab]T; lactam 4-C) : reported MIC K. pneumoniae ATCC BAA-2146 (NDM-1) = ? 2

Entry CCCCCC(=O)CC(=O)N[C@@H](CCN)C(=O)N[C@H](C(=O)N[C@@H](CCN)C(=O)N[C@H]1CCNC(=O)[C@H]([C@@H](C)O)NC(=O)[C@H](CCN)NC(=O)[C@H](CCN)NC(=O)[C@H](CC(C)C)NC(=O)[C@@H](Cc2ccccc2)NC(=O)[C@H](CCN)NC1=O)[C@@H](C)O [Compound 5] (X1-[Dab]T[Dab][Dab][Dab][dF]L[Dab][Dab]T; lactam 4-C) : reported MIC K. pneumoniae ATCC BAA-2146 (NDM-1) = ? 0.5

Entry COCCCCCC(=O)N[C@@H](CCN)C(=O)N[C@H](C(=O)N[C@@H](CCN)C(=O)N[C@H]1CCNC(=O)[C@H]([C@@H](C)O)NC(=O)[C@H](CCN)NC(=O)[C@H](CCN)NC(=O)[C@H](CC(C)C)NC(=O)[C@@H](Cc2ccccc2)NC(=O)[C@H](CCN)NC1=O)[C@@H](C)O [Compound 1] (X4-[Dab]T[Dab][Dab][Dab][dF]L[Dab][Dab]T; lactam 4-C) : reported MIC K. pneumoniae ATCC BAA-2146 (NDM-1) = ? 4

Entry CCCCCCC(=O)N[C@@H](CCN)C(=O)N[C@H](C(=O)N[C@@H](CCN)C(=O)N[C@H]1CCNC(=O)[C@H]([C@@H](C)O)NC(=O)[C@H](CCN)NC(=O)[C@H](CCN)NC(=O)[C@H](CC(C)C)NC(=O)[C@@H](CC(C)C)NC(=O)[C@H](CCN)NC1=O)[C@@H](C)O [Compound 82] (Heptanoyl-[Dab]T[Dab][Dab][Dab][dL]L[Dab][Dab]T; lactam 4-C) : reported MIC K. pneumoniae ATCC BAA-2146 (NDM-1) = ? 0.5

====

- System: Acinetobacter baumannii ATCC 19606
- Type: cell-based
- particulars: ATCC 19606
Where a SMILES comes first, the peptide text is derived from it. Bridges are numbered along the chain shown (N, C = ends). [ ]: non-standard residue; d: D form. The star is where a group is joined. X2 = CC[C@H](C)CCCCC(=O)*; Octanoyl = CCCCCCCC(=O)*; Dab = NCC[C@H](N)C(=O)O
measure.name: MIC A. baumannii ATCC 19606 (µg/mL)
Number in µg/mL, nothing else.

Recall the recorded MIC A. baumannii ATCC 19606 for CC[C@H](C)CCCCC(=O)N[C@@H](CCN)C(=O)N[C@H](C(=O)N[C@@H](CCN)C(=O)N[C@H]1CCNC(=O)[C@H]([C@@H](C)O)NC(=O)[C@H](CCN)NC(=O)[C@H](CCN)NC(=O)[C@H]([C@@H](C)CC)NC(=O)[C@@H](Cc2ccccc2)NC(=O)[C@H](CCN)NC1=O)[C@@H](C)O [Compound 47] (X2-[Dab]T[Dab][Dab][Dab][dF]I[Dab][Dab]T; lactam 4-C) with Acinetobacter baumannii ATCC 19606 and state it. 1

Recall the recorded MIC A. baumannii ATCC 19606 for CCCCCCCC(=O)N[C@@H](CCN)C(=O)N[C@H](C(=O)N[C@@H](CO)C(=O)N[C@H]1CCNC(=O)[C@H]([C@@H](C)O)NC(=O)[C@H](CCN)NC(=O)[C@H](CCN)NC(=O)[C@H]([C@@H](C)O)NC(=O)[C@@H](CC(C)C)NC(=O)[C@H](CCN)NC1=O)[C@@H](C)O [Compound 111] (Octanoyl-[Dab]TS[Dab][Dab][dL]T[Dab][Dab]T; lactam 4-C) with Acinetobacter baumannii ATCC 19606 and state it. 1

====

Please provide measured MIC A. baumannii ATCC 19606 for the entries that follow.
- System: Acinetobacter baumannii ATCC 19606
- Format: cell-based
- particulars: ATCC 19606
Where a SMILES comes first, the peptide text is derived from it. Bridges are numbered along the chain shown (N, C = ends). [ ]: non-standard residue; d: D form. The star is where a group is joined. dPhe(4-Cl) = N[C@H](Cc1ccc(Cl)cc1)C(=O)O; Heptanoyl(6-Me) = CC(C)CCCCC(=O)*; X2 = CC[C@H](C)CCCCC(=O)*; Dab = NCC[C@H](N)C(=O)O; Nva = CCC[C@H](N)C(=O)O; X9 = CCCCCCC(=O)CC(=O)*

Entry CCC[C@@H]1NC(=O)[C@@H](CC(C)C)NC(=O)[C@H](CCN)NC(=O)[C@@H](NC(=O)[C@H](CCN)NC(=O)[C@@H](NC(=O)[C@H](CCN)NC(=O)CCCCC(C)C)[C@@H](C)O)CCNC(=O)[C@H]([C@@H](C)O)NC(=O)[C@H](CCN)NC(=O)[C@H](CCN)NC1=O [Compound 77] ({Heptanoyl(6-Me)}-[Dab]T[Dab][Dab][Dab][dL][Nva][Dab][Dab]T; lactam 4-C) : reported MIC A. baumannii ATCC 19606 = ? 0.5 µg/mL

Entry CC(C)CCCCC(=O)N[C@@H](CCN)C(=O)N[C@H](C(=O)N[C@@H](CCN)C(=O)N[C@H]1CCNC(=O)[C@H]([C@@H](C)O)NC(=O)[C@H](CCN)NC(=O)[C@H](CCN)NC(=O)[C@H](CC(C)C)NC(=O)[C@@H](Cc2ccccc2)NC(=O)[C@H](CCN)NC1=O)[C@@H](C)O [Compound 43] ({Heptanoyl(6-Me)}-[Dab]T[Dab][Dab][Dab][dF]L[Dab][Dab]T; lactam 4-C) : reported MIC A. baumannii ATCC 19606 = ? 0.5 µg/mL

Entry CC[C@H](C)CCCCC(=O)N[C@@H](CCN)C(=O)N[C@H](C(=O)N[C@@H](CCN)C(=O)N[C@H]1CCNC(=O)[C@H]([C@@H](C)O)NC(=O)[C@H](CCN)NC(=O)[C@H](CCN)NC(=O)[C@H](CC(C)C)NC(=O)[C@@H](Cc2ccc(Cl)cc2)NC(=O)[C@H](CCN)NC1=O)[C@@H](C)O [Compound 16] (X2-[Dab]T[Dab][Dab][Dab][dPhe(4-Cl)]L[Dab][Dab]T; lactam 4-C) : reported MIC A. baumannii ATCC 19606 = ? 1 µg/mL

Entry CCCCCCC(=O)CC(=O)N[C@@H](CCN)C(=O)N[C@H](C(=O)N[C@@H](CCN)C(=O)N[C@H]1CCNC(=O)[C@H]([C@@H](C)O)NC(=O)[C@H](CCN)NC(=O)[C@H](CCN)NC(=O)[C@H](CC(C)C)NC(=O)[C@@H](Cc2ccccc2)NC(=O)[C@H](CCN)NC1=O)[C@@H](C)O [Compound 6] (X9-[Dab]T[Dab][Dab][Dab][dF]L[Dab][Dab]T; lactam 4-C) : reported MIC A. baumannii ATCC 19606 = ? 2 µg/mL

Entry CC[C@H](C)CCCCC(=O)N[C@@H](CCN)C(=O)N[C@H](C(=O)N[C@@H](CCN)C(=O)N[C@H]1CCNC(=O)[C@H](CC(C)C)NC(=O)[C@H](CCN)NC(=O)[C@H](CCN)NC(=O)[C@H](CC(C)C)NC(=O)[C@@H](Cc2ccccc2)NC(=O)[C@H](CCN)NC1=O)[C@@H](C)O [Compound 127] (X2-[Dab]T[Dab][Dab][Dab][dF]L[Dab][Dab]L; lactam 4-C) : reported MIC A. baumannii ATCC 19606 = ? 2 µg/mL
